EXPERIMENT: 384-well plate pilot, post-Golgi transport modulator project, inhibition of yeast transport mutant growth (AID 636)
CONDITION_NOTES: absorbance 615 nm, about 18 h, stronger effect = higher value
Active and inactive are the calls of the source. Cut-off read from the data, not from the text of the source: active = inhibition above about 31%; inactive = the rest.
OBSERVABLE: inhibition

INSERT INTO measurements (compound, observed_result) VALUES
  ('Cc1ccccc1-c1nc(CS(=O)(=O)CC(=O)NCc2ccccc2)c(C)o1', '-7.07% (inactive)'),
  ('Cc1ccc(NC(=O)CC2Nc3ccccc3NC2=O)cc1Cl (centres undefined)', '-1.17% (inactive)'),
  ('COc1ccccc1N1CCN(c2cc(N3CCCC3)nc(C)n2)CC1', '-2.6% (inactive)'),
  ('COC(=O)Cc1c(C)nc2nc[nH]n2c1=O', '-4.73% (inactive)');

---

EXPERIMENT: reversal of MRP1-mediated doxorubicin resistance, pilot screen, H69AR cells, doxorubicin co-treatment (AID 601)
CONDITION_NOTES: H69AR cells + 2 uM doxorubicin, CellTiter-Glo, 72 h; measured here: viability with 2 uM doxorubicin; at 10 µM; stronger effect = lower value
Please use satisfied for viability under 90% and not satisfied for everything else, ties included.

INSERT INTO results (molecule, label) VALUES
  ('COc1ccc(C2C=C(c3ccccc3)Nc3ncnn32)cc1 (stereo not given)', 'not satisfied'),
  ('CC(NC(=O)c1cn(C)c2ccc(S(=O)(=O)N3CCCC3)cc2c1=O)c1ccc2c(c1)OCCO2 (stereo not given)', 'satisfied'),
  ('COC(=O)c1oc2ccc(OC)cc2c1N', 'satisfied'),
  ('Cc1ccc2[nH]c3c(c2c1)CN(C(=O)CN1CCN(c2cccc(C)c2C)CC1)CC3', 'satisfied'),
  ('CC(C)(C)c1ccc(C(=O)N2CCC(C(=O)NCc3ccncc3)CC2)cc1', 'not satisfied'),
  ('C=CCn1c(SCn2nnc3ccccc3c2=O)nnc1-c1ccc(Br)cc1', 'satisfied'),
  ('O=C(CP(=O)(c1ccccc1)c1ccccc1)N1CCCCC1', 'satisfied'),
  ('Cn1ncc2c(Nc3ccccc3Br)ncnc21', 'not satisfied'),
  ('Clc1ccc(Cl)c(-c2nn3c(Cn4cnc5ccccc54)nnc3s2)c1', 'not satisfied'),
  ('CCN(CC)CCN1C(=O)C(O)=C(C(=O)c2cccs2)C1c1ccc(C)o1 (stereo not given)', 'not satisfied'),
  ('Cc1cccc(NC(=O)c2cc(NC(=O)c3ccco3)ccc2Cl)n1', 'not satisfied'),
  ('C=CCn1c(=O)c2ccccc2n2c(SC(C)C(=O)Nc3nc(-c4ccccc4)cs3)nnc12 (stereo not given)', 'satisfied'),
  ('O=c1oc(-c2ccco2)nc2ccccc12', 'satisfied'),
  ('CCOc1ccc(NC(=O)COC(=O)Cn2cnnn2)cc1OCC', 'not satisfied'),
  ('Cn1c(=O)[nH]c(=O)c2c1nc(NCCCn1ccnc1)n2Cc1cccc(Br)c1', 'satisfied'),
  ('N#Cc1cnn(Cc2ccc(Cl)cc2)c1N', 'satisfied'),
  ('CCC(C(=O)NC(C)CCc1ccco1)n1nc(C)n2c(cc3occc32)c1=O (stereo not given)', 'not satisfied'),
  ('Cc1ccc(-c2nnc(-c3cccc(Br)c3)o2)cc1', 'not satisfied'),
  ('C=CCn1c(SCC#N)nc2c(c1=O)C(C)(C)Cc1ccccc1-2', 'satisfied'),
  ('Cc1ccc(NC(=O)CC2Nc3ccccc3NC2=O)cc1Cl (stereo not given)', 'satisfied'),
  ('Cc1[nH]nc2c1C(CCc1ccccc1)C(C#N)=C(N)O2 (stereo not given)', 'not satisfied'),
  ('O=C(CN1C(=O)CCS(=O)(=O)c2ccccc21)Nc1cccc(F)c1', 'not satisfied'),
  ('CCOc1cccc2cc(C(=O)N3CCN(C/C=C/c4ccccc4)CC3)c(=O)oc12', 'satisfied'),
  ('CCn1cc(C(=O)O)c(=O)c2ccc(C)nc21', 'not satisfied'),
  ('Clc1ccccc1-c1nnc2sc(-c3ccccn3)nn12', 'satisfied'),
  ('COc1ccc(-c2ccc(-c3noc(-c4cccs4)n3)c(OC)n2)cc1', 'satisfied'),
  ('COc1ccc(C(O)C(CN2CCOCC2)c2ccccc2)cc1F (stereo not given)', 'not satisfied'),
  ('CCOC(=O)CC(NS(=O)(=O)c1ccc(NC(C)=O)cc1)c1ccc(OCC)cc1 (stereo not given)', 'not satisfied');

---

EXPERIMENT: 384-well plate pilot, post-Golgi transport modulator project, inhibition of yeast transport mutant growth (AID 636)
CONDITION_NOTES: absorbance 615 nm, about 18 h, stronger effect = higher value
Here the recorded inhibition is given for each entry.
OBSERVABLE: inhibition (%)

INSERT INTO assay_data (molecule, observed_result) VALUES
  ('Cn1c(=O)c(=O)n(C)c2cc(S(=O)(=O)N3CCN(c4cccc(C(F)(F)F)c4)CC3)ccc21', 0.4),
  ('COc1ccccc1-n1cnc2cc(NS(=O)(=O)c3ccccc3)ccc21', -3.15),
  ('CCOC(=O)c1c(NC(=O)Cn2c(C)nc3ccccc32)sc2c1CCC2', -4.53),
  ('Cc1cc(C)cc(OCC(=O)NC2=NCCS2)c1', 0.39),
  ('Cc1ccccc1C(=O)NC1CCN(Cc2nnnn2Cc2ccccc2)CC1', -4.46),
  ('COc1ccc(CNc2oc(COc3ccccc3Cl)nc2C#N)cc1', 0.26),
  ('COc1ccc(NC(=O)c2oc3ccc(S(=O)(=O)N4CCC5(CC4)OCCO5)cc3c2C)cc1', 1.17),
  ('O=C(CCCN1C(=O)c2ccccc2C1=O)N1CCC(c2ccccc2)C1 (centres undefined)', -5),
  ('CCCCn1c(CN2CCN(CCO)CC2)nc2ccccc21', -0.39),
  ('CS(=O)(=O)N(Cc1ccccc1)c1ccc(C(=O)N2CCOCC2)cc1', -2.86),
  ('COc1ccccc1C(=O)N1CCN(C(=O)COc2cccc(C)c2)CC1', -7.84),
  ('Cc1cc(C)n(-c2nc3sc4c(c3c3nnc(SCC(N)=O)n23)CC(C)(C)OC4)n1', 0.68),
  ('COCCOC(=O)C1=C(C)NC(=O)CC1c1cc2c(cc1Br)OCO2 (centres undefined)', -4.67),
  ('OCCn1c(CSc2nnc(-c3ccco3)n2-c2ccccc2)nc2ccc(Cl)cc21', -5.45),
  ('CCCn1c(=NC(C)=O)c(C#N)cc2c(=O)n3cccc(C)c3nc21', 0.81),
  ('Cc1cc(C(=O)COC(=O)CCc2nc3ccccc3s2)c(C)n1C', -3.7),
  ('O=C(c1cccnc1)N1CCN(Cc2ccc3c(c2)OCO3)CC1', -7.73),
  ('CCN(CC)CC(=O)Nc1c(C)cccc1C', -3.38),
  ('CCOC(=O)C1CSC(CC(=O)Nc2ccc(Cl)cc2)C(=O)N1 (centres undefined)', 0),
  ('O=C(COC(=O)C12CC3CC(CC(C3)C1)C2)NCc1ccco1', -4.16),
  ('NC(=O)C1CCN(C(=S)c2cccs2)CC1', -8.49),
  ('O=C(NC1CCCCC1)C1CCCN1C(=O)NCc1ccccc1 (centres undefined)', -4.93),
  ('CSc1cccc(NC(=O)C2CCN(S(C)(=O)=O)CC2)c1', -4.08),
  ('CCCC(=O)Nc1ccc(NC(=O)c2cccs2)cn1', -2.99),
  ('COc1cc(C(Nc2ccc3c(c2)OCO3)C(=O)NC2CCCCC2)cc(OC)c1OC (centres undefined)', -4.32),
  ('CC1(C)NC(=O)N(CCOc2cccc(Cl)c2Cl)C1=O', -5.2),
  ('COc1ccc(NC(=O)N(C2CCCCC2)C2CCN(C(C)C)CC2)c(OC)c1', -2.73),
  ('Cc1nc2ncnn2c(N2CCC(C(=O)NCC3CCCO3)CC2)c1Cc1ccccc1 (centres undefined)', -3.7),
  ('COC(=O)Cc1[nH]nc2c1C(C1C=CCCC1)C(C#N)=C(N)O2 (centres undefined)', -4.21),
  ('C=CCSc1nnc2n(CCc3ccccc3)c(=O)c3c4c(sc3n12)COC(C)(C)C4', -4.38),
  ('Cc1cc(C)n(-c2nc3sc4c(c3c3nnc(SC(C)C)n23)CC(C)(C)OC4)n1', 1.23),
  ('O=C(CSc1nnc(-c2ccccc2)o1)N1CCN(c2ccccc2)CC1', -4.53),
  ('CCn1c(C(Cc2ccccc2)NC(=O)COC)nc2ccccc21 (centres undefined)', -6.13),
  ('COc1ccc(C2(C(=O)Nc3c(C)n(C)n(-c4ccccc4)c3=O)CCCC2)cc1OC', -2.4),
  ('COC(=O)Cn1c(CCS(=O)(=O)c2ccc(C)cc2)nc2ccccc21', -0.91),
  ('c1cc2c(cc1Cn1cnnn1)OCO2', -1.95),
  ('CCn1c(CNc2ccc(C)cc2)nnc1SCC(=O)NCc1ccccc1', 0.13),
  ('CCOC(=O)c1cc2c(=O)n3cccc(C)c3nc2n(CCOC)c1=NC(=O)c1ccncc1', -4.13),
  ('CCOC(=O)c1ccc(NC(=O)CSc2nnc(COc3ccccc3)n2C)cc1', -1.3);
